Molecular target: human TLR7 (hTLR7) (Homo sapiens)
Sequence (Q9NYK1 27-1049): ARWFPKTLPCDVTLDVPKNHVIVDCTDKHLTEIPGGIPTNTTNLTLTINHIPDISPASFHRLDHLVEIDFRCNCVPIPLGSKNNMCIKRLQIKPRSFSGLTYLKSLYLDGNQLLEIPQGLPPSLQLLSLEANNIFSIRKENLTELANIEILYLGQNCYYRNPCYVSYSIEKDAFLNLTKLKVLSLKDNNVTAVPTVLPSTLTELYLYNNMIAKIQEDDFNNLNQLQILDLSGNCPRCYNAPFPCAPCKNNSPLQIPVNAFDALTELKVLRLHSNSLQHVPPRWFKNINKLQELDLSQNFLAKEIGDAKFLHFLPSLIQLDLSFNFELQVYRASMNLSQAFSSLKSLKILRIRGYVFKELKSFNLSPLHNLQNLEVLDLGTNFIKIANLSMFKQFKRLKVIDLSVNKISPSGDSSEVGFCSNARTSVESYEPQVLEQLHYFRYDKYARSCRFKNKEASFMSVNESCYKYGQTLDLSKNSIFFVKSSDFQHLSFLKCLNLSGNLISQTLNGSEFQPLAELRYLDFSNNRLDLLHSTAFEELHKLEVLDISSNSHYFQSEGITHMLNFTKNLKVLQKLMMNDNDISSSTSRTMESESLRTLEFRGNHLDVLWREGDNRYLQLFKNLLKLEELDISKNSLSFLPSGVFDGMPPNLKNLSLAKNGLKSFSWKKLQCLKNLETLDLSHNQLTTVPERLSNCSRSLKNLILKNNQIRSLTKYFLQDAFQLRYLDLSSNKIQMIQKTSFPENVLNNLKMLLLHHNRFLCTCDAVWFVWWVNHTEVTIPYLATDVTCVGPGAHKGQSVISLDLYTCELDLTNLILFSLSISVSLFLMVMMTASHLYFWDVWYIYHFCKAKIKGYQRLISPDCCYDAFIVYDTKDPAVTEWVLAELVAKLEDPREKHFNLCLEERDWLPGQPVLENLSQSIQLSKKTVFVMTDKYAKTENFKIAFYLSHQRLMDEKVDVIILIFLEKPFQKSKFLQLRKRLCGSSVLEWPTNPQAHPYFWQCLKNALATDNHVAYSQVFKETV
Test: Human TLR7 agonist activity assay (HEK-Blue TLR7 SEAP reporter)
Conditions: HEK-Blue TLR7 cells, 18 h incubation, Quanti-Blue, OD 620 nm, some values average of multiple measurements
pEC50: −log10 of the molar value.
ASSAY READOUT: pEC50

compound="CCCCN(CCO)c1nc(N)nc2cn(Cc3c(F)cc(CNCC4(CO)CC4)cc3OC)nc12 [Compound 92]" assay_readout=pEC50 val=5.88
compound="CCCCN(CCO)c1nc(N)nc2cn(Cc3ccc(CN[C@H]4CCOC4)cc3OC)nc12 [Compound 52]" assay_readout=pEC50 val=5.92
compound="CCCCN(CCO)c1nc(N)nc2cn(Cc3c(F)cc(C4=CC[C@@H](NC5CC6(COC6)C5)CC4)cc3OC)nc12 [Compound 194]" assay_readout=pEC50 val=6.37

(1) CCCCN(c1nc(N)nc2cn(Cc3c(F)cc(C4CCN(C5CC6(COC6)C5)CC4)cc3OC)nc12)C(C)CO (stereo not shown) [Compound 164]
(2) CCCCN(CCO)c1nc(N)nc2cn(Cc3ccc(CN[C@H]4CC[C@H](CO)CC4)cc3C(F)F)nc12 [Compound 131]
Challenge: Please choose the item with the lower pEC50 value from this pair: 1 and 2 Your answer should be the label attached to the chosen record.
Response given: 2
(2: 5.89, 1: 6.71)

(A) CCCCN(CCO)c1nc(N)nc2cn(Cc3c(F)cc(C4CCN(CC(C)(C)O)CC4)cc3OC)nc12 [Compound 36]
(B) CCCCCN(CCO)c1nc(N)nc2cn(Cc3ccc(CN[C@@H]4CCOC4)cc3OC)nc12 [Compound 70]
Challenge: Lower value for measured pEC50? Options: A , B // output: label of the selected item
Response given: B

(a) CCCCN(CCO)c1nc(N)nc2cn(Cc3ccc(CNC4CCC4)c4cccnc34)nc12 [Compound 46]
(b) CCCCN(CCO)c1nc(N)nc2cn(Cc3ccc(CN[C@H]4C[C@H](OCC)C4)cc3OC)nc12 [Compound 101]
Challenge: Sorting by pEC50 in descending order, would a or b appear first? State the label of the item chosen.
Response given: a
